Data provenance is the supplement of paper PMC11208160.

- protocol_notes: recombinant barcode read abundance after kanamycin selection (control-corrected) (log10(CPM+1)); higher = more efficient recombination; sequences stand for … in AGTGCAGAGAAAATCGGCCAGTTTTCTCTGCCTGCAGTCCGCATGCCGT…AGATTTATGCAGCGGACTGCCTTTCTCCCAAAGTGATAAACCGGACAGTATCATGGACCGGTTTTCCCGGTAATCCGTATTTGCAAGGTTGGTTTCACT; site = the 11-nt target
Entries and their recombinant barcode read abundance (log10) values follow.
Write no unit; give the number alone.

ACTTAGCCTTGGGTTCTAACCTGTTGCCT (site ACTTAGCCTAT); 0.0989
GTCAAACCTTGGGTTCTAACCTGTTGCTG (site GTCAAACCTCA); 0.974
CTCGGTTCTTGGGTTCTAACCTGTTGCCT (site CTCGGTTCTAG); 1.41
TAGTACTCTTGGGTTCTAACCTGTTGCTC (site TAGTACTCTTA); 0.124

// recorded recombinant barcode read abundance (log10) for GGTTGTCCTTGGGTTCTAACCTGTTGCGG (site GGTTGCCCTCC) : 0.0684

TCGTCATCTTGGGTTCTAACCTGTTGCCT (site TCGTCATCTAG) yielded recombinant barcode read abundance (log10) of 0.21

---

- protocol_notes: recombinant UMI read abundance after kanamycin selection (control-corrected) (log10(CPM+1)); higher = more efficient recombination; extreme values may be limits of the assay; sequences stand for … in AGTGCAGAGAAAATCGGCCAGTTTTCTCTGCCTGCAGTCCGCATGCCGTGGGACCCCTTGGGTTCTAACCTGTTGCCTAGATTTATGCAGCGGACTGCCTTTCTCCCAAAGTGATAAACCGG…AGGTTGGTTTCACT; site = the 11-nt donor
metric: recombinant UMI read abundance (log10)
Respond using a number only.

# annotated cases, reported recombinant UMI read abundance (log10) shown
CAAGGAGCATGGACCGGTTTTCCCGGTAATCCGTATTTGCT (site CAAGCAGCTAG); 2.16
CCAACTACATGGACCGGTTTTCCCGGTAATCCGTATTTGAC (site CCAACTACTGT); 0.998
CATCTTTCATGGACCGGTTTTCCCGGTAATCCGTATTTGGT (site CATCTTTCTAC); 0.00559
ATCTGTGCATGGACCGGTTTTCCCGGTAATCCGTATTTGGC (site ATCTGTGCTGC); 0
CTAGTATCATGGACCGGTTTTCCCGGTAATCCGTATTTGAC (site CTAGAATCTGT); 0.992

In plain terms, ATAAGCCCATGGACCGGTTTTCCCGGTAATCCGTATTTGAC (site ATAAGGCCTGT) has a documented recombinant UMI read abundance (log10) of 0.528

recombinant UMI read abundance (log10) in this record for AACCTTCCATGGACCGGTTTTCCCGGTAATCCGTATTTGAT (site AACCATCCTAT) : 0.00673

response.value for TCATTCTCATGGACCGGTTTTCCCGGTAATCCGTATTTGCA (site TCATACTCTTG) (field: recombinant UMI read abundance (log10)) = 1.25

The sequence listed as ATGACTGCATGGACCGGTTTTCCCGGTAATCCGTATTTGCG (site ATGACTGCTCG) shows recombinant UMI read abundance (log10) equal to 1.7

---

Form field: recombinant UMI read abundance (log10) (one value per entry).
- protocol_notes: recombinant UMI read abundance after kanamycin selection (control-corrected) (log10(CPM+1)); higher = more efficient recombination; extreme values may be limits of the assay; sequences stand for … in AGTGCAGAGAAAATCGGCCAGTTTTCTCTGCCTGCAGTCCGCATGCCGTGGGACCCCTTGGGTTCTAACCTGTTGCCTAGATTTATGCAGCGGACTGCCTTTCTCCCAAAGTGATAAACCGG…AGGTTGGTTTCACT; site = the 11-nt donor
Keep the answer to the number alone.

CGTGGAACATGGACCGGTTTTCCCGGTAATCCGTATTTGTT (site GGTGGAACTAA); 0.0165
GCCTAGCCATGGACCGGTTTTCCCGGTAATCCGTATTTGCC (site CCCTAGCCTGG); 0

Summary for this sequence, CTGCTAACATGGACCGGTTTTCCCGGTAATCCGTATTTGCT (site CTGCTATCTAG) : recombinant UMI read abundance (log10) is 0.474

recombinant UMI read abundance (log10) measured on CAAGGAACATGGACCGGTTTTCCCGGTAATCCGTATTTGCT (site CAAGGAACTAG) = 2.26

// recombinant UMI read abundance (log10) value for GGTACTTCATGGACCGGTTTTCCCGGTAATCCGTATTTGTT (site GGTACATCTAA) : 0.0111

Looking up ACACGAACATGGACCGGTTTTCCCGGTAATCCGTATTTGTT (site ACACGAACTCA) , I see its recombinant UMI read abundance (log10) listed as 0.359

---

- protocol_notes: recombinant barcode read abundance after kanamycin selection (control-corrected) (log10(CPM+1)); higher = more efficient recombination; sequences stand for … in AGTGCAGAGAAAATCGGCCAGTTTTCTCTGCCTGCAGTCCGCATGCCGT…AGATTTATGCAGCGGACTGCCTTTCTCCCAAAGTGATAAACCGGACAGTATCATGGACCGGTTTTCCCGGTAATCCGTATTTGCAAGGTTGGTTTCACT; site = the 11-nt target
Please enter MET where recombinant barcode read abundance (log10) is greater than or equal to 0.3, and NOT MET where it is lower.

Examples with answers:
CTGTGCCCTTGGGTTCTAACCTGTTGCCT (site CTGGGCCCTAG); NOT MET
CGGAGCCCTTGGGTTCTAACCTGTTGCAT (site CGCAGCCCTAT); NOT MET
ATCAAGACTTGGGTTCTAACCTGTTGCCT (site ATTAAGACTAG); NOT MET
GAGCCTACTTGGGTTCTAACCTGTTGCCT (site GAACCTACTCG); NOT MET

State whether the measured recombinant barcode read abundance (log10) reaches 0.3, counting equality as reaching it, for TTGGTAGCTTGGGTTCTAACCTGTTGCCT (site TTGGAAGCTAG) NOT MET

Threshold query (recombinant barcode read abundance (log10) >= 0.3) on GTAGTAGCTTGGGTTCTAACCTGTTGCCT (site GTAGTATCTAG) MET

hey, is recombinant barcode read abundance (log10) for this one >= 0.3? TCCGCGACTTGGGTTCTAACCTGTTGCCT (site TCGGCGACTAG) MET

Does the reported recombinant barcode read abundance (log10) for GAAGTAACTTGGGTTCTAACCTGTTGCCT (site GATGTAACTAG) fall at or above the 0.3 mark? NOT MET

Reported recombinant barcode read abundance (log10) at or above 0.3? CTACAGACTTGGGTTCTAACCTGTTGCGG (site CTACAGACTGC) NOT MET

---

- protocol_notes: recombinant barcode read abundance after kanamycin selection (control-corrected) (log10(CPM+1)); higher = more efficient recombination; sequences stand for … in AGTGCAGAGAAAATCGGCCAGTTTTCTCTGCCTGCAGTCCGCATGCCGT…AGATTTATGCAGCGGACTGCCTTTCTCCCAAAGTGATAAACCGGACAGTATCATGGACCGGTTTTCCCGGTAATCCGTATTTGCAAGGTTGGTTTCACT; site = the 11-nt target
Records here are stratified by recombinant barcode read abundance (log10); strata: zone 1: < 0.08; zone 2: ≥ 0.08 and < 0.9; zone 3: ≥ 0.9

These recorded examples may help you get a feel for the data.
ACTTAGCCTTGGGTTCTAACCTGTTGCCT (site ACTTAGCCTAG); zone 3
ATGAACCCTTGGGTTCTAACCTGTTGCGT (site ATGAACCCTAC); zone 3
TGTTCCTCTTGGGTTCTAACCTGTTGCCT (site TGTGCCTCTAG); zone 2
ACTTCTACTTGGGTTCTAACCTGTTGCTA (site ACTTCTACTTA); zone 1
CGTTCCTCTTGGGTTCTAACCTGTTGCCT (site CGTTCCTCTAG); zone 2
TATAGCTCTTGGGTTCTAACCTGTTGCCT (site CATAGCTCTAG); zone 2
GGTCGTACTTGGGTTCTAACCTGTTGCCT (site GGTCGTACTAG); zone 2
CCACCGCCTTGGGTTCTAACCTGTTGCCT (site CCACCGCCTAG); zone 2
ATTTAACCTTGGGTTCTAACCTGTTGCGT (site ATTTAACCTAC); zone 3
TTCTTCCCTTGGGTTCTAACCTGTTGCCT (site TTCTTCCCTAG); zone 2

Band for the recorded recombinant barcode read abundance (log10) of GGGTAAACTTGGGTTCTAACCTGTTGCCT (site GGGTAAACTAG) ? zone 3

Input TAGAAGCCTTGGGTTCTAACCTGTTGCCT (site TAGAAGCCTAG) ; output its category zone 3

Looking at TCTTGGACTTGGGTTCTAACCTGTTGCTC (site TCTTGGACTTA) , which class would you pick? zone 1

Which of the defined bands does the recorded recombinant barcode read abundance (log10) of GATTCTACTTGGGTTCTAACCTGTTGCGT (site CATGCTACTAC) sit within? zone 1

Lab log: CATAATTCTTGGGTTCTAACCTGTTGCCT (site CATGATTCTAG) — assign recombinant barcode read abundance (log10) category zone 1

Looking at AGGGCGTCTTGGGTTCTAACCTGTTGCCG (site AGGGCGTCTCG) , which class would you pick? zone 3

// return the class label for GACTGCCCTTGGGTTCTAACCTGTTGCCT (site GTCTGCCCTAG) zone 2

// bin(item) where item = GTCAAGCCTTGGGTTCTAACCTGTTGCTG (site GTCAATCCTCA) zone 1

The entry to classify is TCTAAGTCTTGGGTTCTAACCTGTTGCCG (site TCTAAGTCTAG) ; which class holds it? zone 1

Hi there! Could you help me figure out the category for GTGTATCCTTGGGTTCTAACCTGTTGCAT (site GTGTGTCCTAT) please? zone 1
